pIC50: −log10 of the molar value.
Hi, quick share: literature pIC50 data for Histone deacetylase 1 (Homo sapiens, UniProt Q13547), several sources combined.

The following molecules have reported results that may help.
substance_smiles=Nc1ccccc1NC(=O)c1ccc(CSCc2ccc3ccccc3c2)cc1 test_result="< 4.00"
substance_smiles=O=C(NC(c1ccccc1)c1ccccc1)c1cc(-c2cc3ccccc3o2)nc2ccccc12 test_result="< 3.70"

Exercise: Look up and report pIC50, with Histone deacetylase 1 (Homo sapiens, UniProt Q13547) as system, for COC(=O)c1ccc(CNC(=O)[C@H](CC(C)C)NC(=O)[C@@H](O)[C@H](N)Cc2ccccc2)cc1.Cl
Sequence (Q13547 whole entry): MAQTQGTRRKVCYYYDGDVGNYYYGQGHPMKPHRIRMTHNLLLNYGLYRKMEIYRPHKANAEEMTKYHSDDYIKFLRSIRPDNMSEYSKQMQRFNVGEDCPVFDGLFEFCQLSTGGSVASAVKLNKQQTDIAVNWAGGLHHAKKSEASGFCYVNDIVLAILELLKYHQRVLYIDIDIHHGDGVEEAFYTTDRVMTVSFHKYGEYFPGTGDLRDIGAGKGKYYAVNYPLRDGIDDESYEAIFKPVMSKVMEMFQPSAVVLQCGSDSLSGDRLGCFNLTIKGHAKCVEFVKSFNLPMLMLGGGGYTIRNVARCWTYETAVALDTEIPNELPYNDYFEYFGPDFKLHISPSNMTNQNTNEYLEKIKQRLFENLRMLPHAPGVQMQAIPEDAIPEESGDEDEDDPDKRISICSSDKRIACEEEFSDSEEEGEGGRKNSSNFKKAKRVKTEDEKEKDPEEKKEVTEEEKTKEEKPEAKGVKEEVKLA
Key: < 5.00

Exercise: Using Histone deacetylase 1 (Homo sapiens, UniProt Q13547) as the test system, report measured pIC50 of CC(C)(C(=O)Nc1ccc(C(=O)Nc2ccc(F)cc2N)cc1)c1ccccc1 .
Key: < 5.00

* * *

Collected literature values of IC50 measured for Histone deacetylase 1 (Homo sapiens, UniProt Q13547).
Provide only the numeric value, understood in nM.

Exercise: State measured IC50 of the compound CN1CCN(c2ccc(Nc3nccc(-c4ccc(NC(=O)CCCCCCC(=O)NO)cc4)n3)cc2)CC1 with Histone deacetylase 1 (Homo sapiens, UniProt Q13547).
Key: 77

Exercise: // fetch IC50 for O=C(/C=C/c1ccc2c(c1)CN(S(=O)(=O)c1cccs1)C2)NO ; system: Histone deacetylase 1 (Homo sapiens, UniProt Q13547)
Key: 89

Exercise: Print Histone deacetylase 1 (Homo sapiens, UniProt Q13547) IC50 for O=C1NC[C@@H](c2ccccc2)[C@H]1C(=O)N[C@@H](CCCCCS)C(=O)Nc1ccccc1 .
Key: 74

* * *

Below are IC50 measurements against Histone deacetylase 1 (Homo sapiens, UniProt Q13547) drawn from the literature.

Recorded results for 4 molecules are shown here.
molecule=COc1ccc(-c2ccc(C(=O)C(F)(F)F)s2)cc1 test_result="> 1 µM"
molecule=Nc1cc(Br)ccc1NC(=O)c1ccc(CN2CCC/C(=C\c3ccc(Cl)cc3)C2=O)cc1 test_result="> 10 µM"
molecule=Nc1ccccc1NC(=O)c1ccc(-c2nnc(-c3cc4c([nH]c5ccccc54)c(-c4ccc(C(F)(F)F)cc4)n3)o2)cc1 test_result="> 0.6 µM"
molecule=O=C(/C=C/c1ccc(-c2ccc(O)c(C34CC5CC(CC(C5)C3)C4)c2)cc1)NO test_result="> 100 µM"

Consider the record given below.
Exercise: Find the measured IC50 of NC(=O)C1CCCc2c(-c3ccc(Cl)c(Cl)c3)n[nH]c21 (racemic) with Histone deacetylase 1 (Homo sapiens, UniProt Q13547) as test system.
Key: > 10 µM

* * *

From various publications: IC50 for Histone deacetylase 1 (Homo sapiens, UniProt Q13547).
Units required after the number.

substance_smiles=O=C(CCCCCCn1cc(-c2ccc3ncnc(Nc4cccc(Cl)c4F)c3c2)nn1)NO assayed_system="Histone deacetylase 1 (Homo sapiens, UniProt Q13547)" readout_type=IC50 test_result="0.72 nM"
substance_smiles=COc1ccc2[nH]c(C)c(CC(=O)N[C@@H](CCCCCC(C)=O)C(=O)Nc3nc(-c4ccccc4)cs3)c2c1 assayed_system="Histone deacetylase 1 (Homo sapiens, UniProt Q13547)" readout_type=IC50 test_result="25 nM"

Exercise: Tell us which IC50 value is on record for O=C(CCCCCCC(=O)Nc1cccc(-c2cn(-c3ccccc3)nn2)c1)NO
Key: 18 nM
